Target: HLA-A2402 (Homo sapiens, UniProt P04439, D101N/D140Y/D185E/E176V/E190D/F33S/G103R/G107R/I119L/I121M/I306V/K335N/L105A/L180Q/L300P/N151K/N90K/Q86E/Q94H/R106L/R138H/R89G/T104I/T345S/V100E/W191G/Y123F)
Assay: cell-based
Assay type: binding
Residues, ends and D or L forms follow the SMILES beside them.
Attribute: IC50

compound | IC50
CC(C)C[C@H](NC(=O)[C@@H](NC(=O)[C@H](Cc1ccccc1)NC(=O)[C@@H](NC(=O)[C@H](CCCCN)NC(=O)[C@H](CC(C)C)NC(=O)[C@@H](N)CCCNC(=N)N)C(C)C)C(C)C)C(=O)NCC(=O)NCC(=O)O [Epitope P93] (H-RLKVFVLGG-OH; N-terminus and C-terminus assumed) | > 15 µM
CC(C)C[C@H](NC(=O)[C@@H](N)Cc1ccccc1)C(=O)N1CCC[C@H]1C(=O)N[C@@H](CO)C(=O)N[C@@H](CC(=O)O)C(=O)N[C@@H](Cc1ccccc1)C(=O)N[C@@H](Cc1ccccc1)C(=O)N1CCC[C@H]1C(=O)N[C@@H](CO)C(=O)O [Epitope P67] (H-FLPSDFFPS-OH; N-terminus and C-terminus assumed) | > 15 µM

Shifting focus to the compound that follows.
Kindly indicate its recorded IC50. Item: CC(C)C[C@H](NC(=O)[C@@H](NC(=O)[C@H](Cc1ccccc1)NC(=O)[C@@H](NC(=O)[C@@H](N)CCCCN)C(C)C)C(C)C)C(=O)NCC(=O)NCC(=O)N[C@@H](CS)C(=O)N[C@@H](CCCNC(=N)N)C(=O)O [Epitope P63]
> 15 µM

###

Target: HLA-A3001 (Homo sapiens, UniProt P04439, D140H/D185E/E176W/F33S/G80R/H175R/K168Q/R138E/R41S)
Test: Peptide competitive binding assay, transfected HMy2.CIR cells, reference ASRELK(FITC)VSY
Conditions: read-out: Affinity
pIC50: −log10 of the molar value. Residues, ends and D or L forms follow the SMILES beside them.
measuredMetric: pIC50

Look over these answered cases.
compound | valueObserved
CC(C)C[C@H](NC(=O)[C@@H](NC(=O)[C@H](Cc1ccccc1)NC(=O)[C@@H](NC(=O)[C@H](CCCCN)NC(=O)[C@H](CC(C)C)NC(=O)[C@@H](N)CCCNC(=N)N)C(C)C)C(C)C)C(=O)NCC(=O)NCC(=O)O [Epitope P93] (H-RLKVFVLGG-OH; N-terminus and C-terminus assumed) | < 4.82
CC[C@H](C)[C@H](NC(=O)[C@H](CCC(N)=O)NC(=O)[C@H](Cc1c[nH]cn1)NC(=O)[C@H](C)NC(=O)[C@H](CC(N)=O)NC(=O)[C@@H](NC(=O)[C@@H](N)[C@@H](C)O)C(C)C)C(=O)N[C@@H](CC(C)C)C(=O)N1CCC[C@H]1C(=O)N[C@@H](CCCCN)C(=O)O [Epitope P17] (H-TVNAHQILPK-OH; N-terminus and C-terminus assumed) | < 4.82

# next compound below
Given CC(C)C[C@H](NC(=O)[C@H](CCC(=O)O)NC(=O)[C@H](CCCNC(=N)N)NC(=O)[C@H](CO)NC(=O)[C@H](C)N)C(=O)N[C@H](C(=O)N[C@H](C(=O)N[C@@H](CO)C(=O)N[C@@H](Cc1ccc(O)cc1)C(=O)O)C(C)C)C(C)C [Epitope P88] (H-ASRELVVSY-OH; N-terminus and C-terminus assumed) , respond with its pIC50.
> 5.30

Data origin: paper PMC9021956
